- System: blackgrass
- TEST DESCRIPTION: Test C postemergence
- Type: in vivo, Alopecurus myosuroides
- CONDITION SUMMARY: 125 g ai/ha, postemergence, 10 days; 0 to 100 scale, 0 no effect, 100 complete control
Each entry below carries its recorded Plant response rating, Blackgrass.

Cc1ccc(-n2cnc(C3(C)COC3)n2)cc1C(=O)N1C[C@H](C)Oc2c(Cl)cccc21 ... 80
Cc1ccc(-n2cnc(C(C)C)n2)cc1C(=O)N1CC(C(F)(F)F)Oc2c(Cl)cccc21 (single isomer, unassigned) ... 0
C[C@H]1CN(C(=O)c2cc(-n3cnc(C(C)(C)C)n3)cc3c2OCCO3)c2cccc(Cl)c2O1 ... 20
CCc1ccc(-n2cnc(C(C)C)n2)cc1C(=O)N1C[C@H](C)Oc2c(C)cccc21 ... 80

QUERY: Give me measured Plant response rating, Blackgrass, please, for this compound: COc1ccc(-n2cnc(C(C)(C)O)n2)cc1C(=O)N1C[C@H](C)Oc2c(Cl)cccc21
RESULT: 80

QUERY: Give me measured Plant response rating, Blackgrass, please, for this compound: CCc1ncn(-c2cc3c(c(C(=O)N4C[C@H](C)Oc5c(Cl)cccc54)c2)OCCO3)n1
RESULT: 90

QUERY: Give me measured Plant response rating, Blackgrass, please, for this compound: COc1cc(C(=O)N2C[C@H](C)Oc3c(Cl)cccc32)cc(-n2cnc(C(C)(C)C)n2)c1
RESULT: 0

QUERY: Give me measured Plant response rating, Blackgrass, please, for this compound: COc1ccc(-n2cncn2)cc1C(=O)N1C[C@H](C)Oc2c(Cl)cccc21
RESULT: 90

QUERY: Give me measured Plant response rating, Blackgrass, please, for this compound: COC[C@H]1CN(C(=O)c2cc(-n3cncn3)ccc2OC)c2cccc(Cl)c2O1
RESULT: 80

QUERY: Give me measured Plant response rating, Blackgrass, please, for this compound: C[C@H]1CN(C(=O)c2cc(-n3cncn3)cc3c2OCCO3)c2cccc(Cl)c2O1
RESULT: 90
